Test: in vivo
Conditions: rat, po, 200 mg/kg, Lung Level
Readout: concentration at 2 h (ng/g)
Please state the figure in ng/g; there is no need to write the unit.

Dear colleague, I am looking for the recorded concentration at 2 h of the following molecule: COCOC(=O)C1=C(C)CSC2C(N3C(=O)[C@@H](c4ccccc4)NC3(C)C)C(=O)N12 (stereo partly shown)
4100

====

Assay: in vivo
Conditions: rat, po, 200 mg/kg, Lung Level, mean
Readout: concentration at 1 h (ng/g)
Please state the figure in ng/g; there is no need to write the unit.

Dear colleague, I am looking for the recorded concentration at 1 h of the following molecule: COCOC(=O)C1=C(C)CSC2C(N3C(=O)[C@@H](c4ccccc4)NC3(C)C)C(=O)N12 (stereo partly shown) [Methoxymethyl Ester of Hetacephalexin]
22300

====

Assay: in vivo
Conditions: rat, po, 200 mg/kg, Plasma Level, mean
Readout: concentration at 0.5 h (ng/mL)
Please state the figure in ng/mL; there is no need to write the unit.

Dear colleague, I am looking for the recorded concentration at 0.5 h of the following compound: COCOC(=O)C1=C(C)CSC2C(N3C(=O)[C@@H](c4ccccc4)NC3(C)C)C(=O)N12 (stereo partly shown)
45500

====

Test: in vivo
Settings: rat, po, 200 mg/kg, Brain to Plasma Ratio
Readout: Kp at 2 h
When you answer, write just the number.

Dear colleague, I am looking for the recorded Kp at 2 h of the following compound: COCOC(=O)C1=C(C)CSC2C(N3C(=O)[C@@H](c4ccccc4)NC3(C)C)C(=O)N12 (stereo partly shown) [Methoxymethyl Ester of Hetacephalexin]
0.046

====

Test: in vivo
Settings: rat, po, 200 mg/kg, Brain Level, mean
Readout: concentration at 1 h (ng/g)
Please state the figure in ng/g; there is no need to write the unit.

Dear colleague, I am looking for the recorded concentration at 1 h of the following compound: COCOC(=O)C1=C(C)CSC2C(N3C(=O)[C@@H](c4ccccc4)NC3(C)C)C(=O)N12 (stereo partly shown) [Methoxymethyl Ester of Hetacephalexin]
1800

====

Test: in vivo
Conditions: rat, po, 200 mg/kg, Lung Level, mean
Readout: concentration at 0.5 h (ng/g)
Please state the figure in ng/g; there is no need to write the unit.

Dear colleague, I am looking for the recorded concentration at 0.5 h of the following molecule: COCOC(=O)C1=C(C)CSC2C(N3C(=O)[C@@H](c4ccccc4)NC3(C)C)C(=O)N12 (stereo partly shown) [Methoxymethyl Ester of Hetacephalexin]
27000

====

Assay: in vivo
Details: rat, po, 200 mg/kg, Lung Level
Readout: concentration at 0.5 h (ng/g)
Please state the figure in ng/g; there is no need to write the unit.

Dear colleague, I am looking for the recorded concentration at 0.5 h of the following molecule: COCOC(=O)C1=C(C)CSC2C(N3C(=O)[C@@H](c4ccccc4)NC3(C)C)C(=O)N12 (stereo partly shown)
23000

====

Assay: in vivo
Details: rat, po, 200 mg/kg, Plasma Level, mean
Readout: concentration at 1 h (ng/mL)
Please state the figure in ng/mL; there is no need to write the unit.

Dear colleague, I am looking for the recorded concentration at 1 h of the following molecule: COCOC(=O)C1=C(C)CSC2C(N3C(=O)[C@@H](c4ccccc4)NC3(C)C)C(=O)N12 (stereo partly shown)
34200

====

Test: in vivo
Conditions: rat, po, 200 mg/kg, Brain Level
Readout: concentration at 1 h (ng/g)
Please state the figure in ng/g; there is no need to write the unit.

Dear colleague, I am looking for the recorded concentration at 1 h of the following compound: COCOC(=O)C1=C(C)CSC2C(N3C(=O)[C@@H](c4ccccc4)NC3(C)C)C(=O)N12 (stereo partly shown)
1700

====

Test: in vivo
Details: rat, po, 200 mg/kg, Plasma Level
Readout: concentration at 0.5 h (ng/mL)
Please state the figure in ng/mL; there is no need to write the unit.

Dear colleague, I am looking for the recorded concentration at 0.5 h of the following molecule: COCOC(=O)C1=C(C)CSC2C(N3C(=O)[C@@H](c4ccccc4)NC3(C)C)C(=O)N12 (stereo partly shown)
40000

====

Assay: in vivo
Conditions: rat, po, 200 mg/kg, Plasma Level
Readout: concentration at 2 h
Returns: string containing the numeric result and its unit.

Dear colleague, I am looking for the recorded concentration at 2 h of the following molecule: COCOC(=O)C1=C(C)CSC2C(N3C(=O)[C@@H](c4ccccc4)NC3(C)C)C(=O)N12 (stereo partly shown) [Methoxymethyl Ester of Hetacephalexin]
11000 ng/mL

====

Test: in vivo
Settings: rat, po, 200 mg/kg, Plasma Level, mean
Readout: concentration at 2 h (ng/mL)
Please state the figure in ng/mL; there is no need to write the unit.

Dear colleague, I am looking for the recorded concentration at 2 h of the following compound: COCOC(=O)C1=C(C)CSC2C(N3C(=O)[C@@H](c4ccccc4)NC3(C)C)C(=O)N12 (stereo partly shown)
14500

====

Test: in vivo
Conditions: rat, po, 200 mg/kg, Lung Level
Readout: concentration at 1 h (ng/g)
Please state the figure in ng/g; there is no need to write the unit.

Dear colleague, I am looking for the recorded concentration at 1 h of the following compound: COCOC(=O)C1=C(C)CSC2C(N3C(=O)[C@@H](c4ccccc4)NC3(C)C)C(=O)N12 (stereo partly shown) [Methoxymethyl Ester of Hetacephalexin]
22000

====

Assay: in vivo
Details: rat, po, 200 mg/kg, brain peak as percent of plasma level
Readout: Kp

Dear colleague, I am looking for the recorded Kp of the following molecule: COCOC(=O)C1=C(C)CSC2C(N3C(=O)[C@@H](c4ccccc4)NC3(C)C)C(=O)N12 (stereo partly shown)
~0.06

====

Assay: in vivo
Details: rat, po, 200 mg/kg, Brain to Plasma Ratio
Readout: Kp at 1 h
When you answer, write just the number.

Dear colleague, I am looking for the recorded Kp at 1 h of the following molecule: COCOC(=O)C1=C(C)CSC2C(N3C(=O)[C@@H](c4ccccc4)NC3(C)C)C(=O)N12 (stereo partly shown) [Methoxymethyl Ester of Hetacephalexin]
0.047

====

Experiment: in vivo
Details: rat, po, 200 mg/kg, Lung Level, mean
Readout: concentration at 2 h (ng/g)
Please state the figure in ng/g; there is no need to write the unit.

Dear colleague, I am looking for the recorded concentration at 2 h of the following compound: COCOC(=O)C1=C(C)CSC2C(N3C(=O)[C@@H](c4ccccc4)NC3(C)C)C(=O)N12 (stereo partly shown) [Methoxymethyl Ester of Hetacephalexin]
4700

====

Assay: in vivo
Details: rat, po, 200 mg/kg, Brain Level, mean
Readout: concentration at 0.5 h (ng/g)
Please state the figure in ng/g; there is no need to write the unit.

Dear colleague, I am looking for the recorded concentration at 0.5 h of the following compound: COCOC(=O)C1=C(C)CSC2C(N3C(=O)[C@@H](c4ccccc4)NC3(C)C)C(=O)N12 (stereo partly shown)
2200

====

Assay: in vivo
Settings: rat, po, 200 mg/kg
Readout: Kp

Dear colleague, I am looking for the recorded Kp of the following compound: COCOC(=O)C1=C(C)CSC2C(N3C(=O)[C@@H](c4ccccc4)NC3(C)C)C(=O)N12 (stereo partly shown)
~0.83

====

Assay: in vivo
Details: rat, po, 200 mg/kg, Brain to Plasma Ratio
Readout: Kp at […]
When you answer, write just the number.

Dear colleague, I am looking for the recorded Kp at […] of the following compound: COCOC(=O)C1=C(C)CSC2C(N3C(=O)[C@@H](c4ccccc4)NC3(C)C)C(=O)N12 (stereo partly shown) [Methoxymethyl Ester of Hetacephalexin]
0.056
